assay: Metabolic stability in vivo and radiometabolites (radio-HPLC of blood, urine, liver, kidney); set-up: species or system BALB/c mice; conditions: blood, 60 min p.i., mice injected i.v. with [177Lu]Lu-1
Where a SMILES comes first, the peptide text is derived from it. [ ]: non-standard residue; d: D form. The star is where a group is joined. DOTA = O=C(O)CN1CCN(CC(=O)O)CCN(CC(=O)*)CCN(CC(=O)O)CC1; 1Nal = N[C@@H](Cc1cccc2ccccc12)C(=O)O; NMeNle = CCCC[C@H](NC)C(=O)O
ENDPOINT_NAME: percentage of intact radiopeptide / radiometabolite (%)
Numeric only. Scale: %

// percentage of intact radiopeptide / radiometabolite value for CCCC[C@@H](C(=O)N[C@@H](CC(=O)O)C(=O)O)N(C)C(=O)[C@H](Cc1c[nH]c2ccccc12)NC(=O)CNC(=O)[C@H](Cc1ccc(O)cc1)NC(=O)[C@@H]1CCCN1C(=O)[C@@H](CCC(=O)O)NC(=O)CN1CCN(CC(=O)O)CCN(CC(=O)O)CCN(CC(=O)O)CC1 [[^177Lu]Lu-M2, metal not drawn] ({DOTA}-[dE]PYGW[NMeNle]D-OH; C-terminus assumed) : 7.3

// percentage of intact radiopeptide / radiometabolite value for CCCC[C@@H](C(=O)N[C@@H](CC(=O)O)C(=O)N[C@@H](Cc1cccc2ccccc12)C(N)=O)N(C)C(=O)[C@H](Cc1c[nH]c2ccccc12)NC(=O)CNC(=O)[C@H](Cc1ccc(O)cc1)NC(=O)[C@@H]1CCCN1C(=O)[C@@H](CCC(=O)O)NC(=O)CN1CCN(CC(=O)O)CCN(CC(=O)O)CCN(CC(=O)O)CC1 [[^177Lu]Lu-1, metal not drawn] ({DOTA}-[dE]PYGW[NMeNle]D[1Nal]-NH2) : 56.9

// percentage of intact radiopeptide / radiometabolite value for CCCC[C@@H](C(=O)O)N(C)C(=O)[C@H](Cc1c[nH]c2ccccc12)NC(=O)CNC(=O)[C@H](Cc1ccc(O)cc1)NC(=O)[C@@H]1CCCN1C(=O)[C@@H](CCC(=O)O)NC(=O)CN1CCN(CC(=O)O)CCN(CC(=O)O)CCN(CC(=O)O)CC1 [[^177Lu]Lu-M3, metal not drawn] ({DOTA}-[dE]PYGW[NMeNle]-OH; C-terminus assumed) : 20.4

// percentage of intact radiopeptide / radiometabolite value for CCCC[C@@H](C(=O)N[C@@H](CC(=O)O)C(=O)N[C@@H](Cc1cccc2ccccc12)C(=O)O)N(C)C(=O)[C@H](Cc1c[nH]c2ccccc12)NC(=O)CNC(=O)[C@H](Cc1ccc(O)cc1)NC(=O)[C@@H]1CCCN1C(=O)[C@@H](CCC(=O)O)NC(=O)CN1CCN(CC(=O)O)CCN(CC(=O)O)CCN(CC(=O)O)CC1 [[^177Lu]Lu-M1, metal not drawn] ({DOTA}-[dE]PYGW[NMeNle]D[1Nal]-OH) : 5.8

Values compiled from paper PMC7583830.
